# measured-target: HLA-B*15:01
# experiment-summary: IEDB peptide-MHC binding, purified MHC/direct/fluorescence; filed as Kd, often an IC50 or EC50 that approximates it; bounds were set here for any values at or beyond the usual limits of such assays
# reported-conditions: source organism: Giardia intestinalis
experimental-endpoint: pKd
In simple prose, pKd is minus the logarithm base ten of a concentration in moles per litre.

Form field pKd for item SLRPNDIVY on HLA-B*15:01: 6.82

* * *

# measured-target: HLA-A*02:19
# experiment-summary: IEDB peptide-MHC binding, purified MHC/direct/fluorescence; filed as Kd, often an IC50 or EC50 that approximates it; bounds were set here for any values at or beyond the usual limits of such assays
# reported-conditions: source organism: Encephalitozoon cuniculi GB-M1
experimental-endpoint: Kd

So, RNMSRIFPY ? Its Kd was ≥ 20 µM

* * *

# measured-target: HLA-B*45:01
# experiment-summary: IEDB peptide-MHC binding, purified MHC/competitive/radioactivity; filed as Kd, often an IC50 or EC50 that approximates it; bounds were set here for any values at or beyond the usual limits of such assays
# reported-conditions: source organism: Mammarenavirus choriomeningitidis
experimental-endpoint: Kd
Answer with the figure and its unit, nothing else.

So, FEDQFLPFMS ? Its Kd was 3.5 µM

* * *

Kd reference
# measured-target: HLA-B*07:02
# experiment-summary: IEDB peptide-MHC binding, purified MHC/competitive/radioactivity; filed as Kd, often an IC50 or EC50 that approximates it; bounds were set here for any values at or beyond the usual limits of such assays
# reported-conditions: source organism: Dengue virus 4 Philippines/H241/1956
Give just the number in nM; leave the unit off.

{"residues": "QPQWIAASII", "measured-target": "HLA-B*07:02", "uom": "nM", "readout-number": 291}

Turning now to a further sequence:
So, TPFAEYTNSV ? Its Kd was 72.9

* * *

# measured-target: HLA-B*18:01
# experiment-summary: IEDB peptide-MHC binding, purified MHC/competitive/fluorescence; filed as Kd, often an IC50 or EC50 that approximates it; bounds were set here for any values at or beyond the usual limits of such assays
# reported-conditions: source organism: Kurkino virus
pKd: −log10 of the molar value.
experimental-endpoint: pKd

So, SPGDNSAKF ? Its pKd was ≤ 4.70

* * *

# measured-target: HLA-B*18:01
# experiment-summary: IEDB peptide-MHC binding, purified MHC/competitive/radioactivity; filed as Kd, often an IC50 or EC50 that approximates it; bounds were set here for any values at or beyond the usual limits of such assays
# reported-conditions: source organism: SARS coronavirus Tor2
experimental-endpoint: Kd (nM)
Give just the number in nM; leave the unit off.

So, QEIQLLAAV ? Its Kd was 143

So, FENKTTLPV ? Its Kd was 666

So, TELEPPCRF ? Its Kd was 892

* * *

# measured-target: HLA-A*26:01
# experiment-summary: IEDB peptide-MHC binding, purified MHC/competitive/fluorescence; filed as Kd, often an IC50 or EC50 that approximates it; bounds were set here for any values at or beyond the usual limits of such assays
# reported-conditions: source organism: Coxiella burnetii 'MSU Goat Q177'
pKd: −log10 of the molar value.
experimental-endpoint: pKd

So, AVDWYQQRI ? Its pKd was ≤ 4.70

* * *

# measured-target: HLA-A*24:02
# experiment-summary: IEDB peptide-MHC binding, purified MHC/competitive/radioactivity; filed as Kd, often an IC50 or EC50 that approximates it; bounds were set here for any values at or beyond the usual limits of such assays
# reported-conditions: source organism: SARS coronavirus Tor2
experimental-endpoint: Kd

So, ISAGFSLWIY ? Its Kd was ≥ 70.3 µM
